- Target Of Assay: O. sinensis eIF4A His154Gly (Ophiocordyceps sinensis, UniProt A0A8H4LTQ8, H154G)
- Sequence (A0A8H4LTQ8 1-397, stated change not applied): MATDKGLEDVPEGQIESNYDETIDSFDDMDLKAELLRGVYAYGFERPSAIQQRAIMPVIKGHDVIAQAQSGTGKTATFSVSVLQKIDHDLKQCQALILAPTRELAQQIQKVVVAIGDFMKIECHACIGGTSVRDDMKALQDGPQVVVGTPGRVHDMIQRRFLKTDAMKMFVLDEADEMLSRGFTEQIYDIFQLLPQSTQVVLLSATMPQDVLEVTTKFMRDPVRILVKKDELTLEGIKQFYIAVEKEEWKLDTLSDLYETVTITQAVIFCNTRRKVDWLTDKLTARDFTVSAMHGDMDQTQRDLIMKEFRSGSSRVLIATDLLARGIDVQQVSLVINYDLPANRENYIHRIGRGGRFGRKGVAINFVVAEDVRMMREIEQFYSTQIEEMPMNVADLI
- Method Description: Fluorescence polarization assay, FAM-labeled [AG]10 RNA and recombinant eIF4A
- Type: binding
- Condition Set: [AG]10 10 nM; ADP + Pi (1 mM each); compound 50 µM; read-out: Kd between eIF4A protein and RNA
Assay Metric: Kd (nM)

[
  {
    "Molecule": "COc1ccc([C@@]23Oc4cc(OC)cc(OC)c4[C@]2(O)[C@H](O)[C@H](C(=O)N(C)C)[C@H]3c2ccccc2)cc1 [RocA, rocaglamide A]",
    "Assay Metric": "Kd",
    "Observed": 850
  }
]
